# Tested on: DU-145
Below, each entry is listed alongside its reported GI50.

>  <COMPOUND>
C/C=C\[C@H](C)[C@H]1OC1(C)[C@@H](O[Si](C)(C)C(C)(C)C)[C@@H](CO)C(=O)[C@H](CO)[C@@H](O)CC(=O)CC (stereo partly drawn) [20a + 20c]

>  <GI50, µM>
10.7

$$$$
>  <COMPOUND>
C/C=C\[C@H](C)[C@H]1OC1(C)[C@@H](O)[C@@H](CO)C(=O)[C@@H](CO)[C@H](O)CC(=O)CC (stereo partly drawn)

>  <GI50, µM>
26.8

$$$$
>  <COMPOUND>
C/C=C\[C@H](C)[C@H]1O[C@@]1(C)[C@@H](O)[C@@H](CO)C(=O)[C@H](CO)[C@@H](O)CC(=O)CC

>  <GI50, µM>
0.0631

$$$$
>  <COMPOUND>
C/C=C\[C@H](C)[C@H]1OC1(C)[C@@H](O[Si](C)(C)C(C)(C)C)[C@@H](CO)C(=O)[C@H](CO)[C@H](O)CC(=O)CC (stereo partly drawn) [20b + 20d]

>  <GI50, µM>
20.5

$$$$
>  <COMPOUND>
C/C=C\[C@H](C)[C@H]1OC1(C)[C@@H](O[Si](C)(C)C(C)(C)C)[C@@H](CO[Si](C)(C)C(C)(C)C)C(=O)[C@@H](CO[Si](C)(C)C(C)(C)C)[C@@H](CC(=O)CC)O[Si](C)(C)C(C)(C)C (stereo partly drawn) [Compound 30b]

>  <GI50, µM>
12.1

$$$$
>  <COMPOUND>
C/C=C\[C@H](C)[C@H]1OC1(C)[C@@H](O)[C@@H](CO)C(=O)[C@H](CO)[C@H](O)CC(=O)CC (stereo partly drawn)

>  <GI50, µM>
6.52

$$$$

###

# log10 IC (total growth inhibition) per entry
# Test system: HeLa
# PROTOCOL TEXT: Inhibition of cell growth by colorimetric SRB assay, HELA
# Assay type: cell-based
# MEASUREMENT CONDITIONS: Homo sapiens; HELA; 48 hours exposure; total growth inhibition; read-out: TGI
PROPERTY NAME: log10 IC (total growth inhibition) (log10 of the value in µM)

>  <COMPOUND>
C/C=C\[C@H](C)[C@H]1OC1(C)[C@@H](O[Si](C)(C)C(C)(C)C)[C@@H](CO)C(=O)[C@@H](CO)[C@H](O)CC(=O)CC (stereo partly drawn) [31b + 31d]

>  <log10 IC (total growth inhibition)>
1.31

$$$$
>  <COMPOUND>
C/C=C\[C@H](C)[C@H]1OC1(C)[C@@H](O[Si](C)(C)C(C)(C)C)[C@@H](CO[Si](C)(C)C(C)(C)C)C(=O)[C@H](CO[Si](C)(C)C(C)(C)C)[C@H](CC(=O)CC)O[Si](C)(C)C(C)(C)C (stereo partly drawn) [Compound 19a]

>  <log10 IC (total growth inhibition)>
1.08

$$$$
>  <COMPOUND>
C/C=C\[C@H](C)[C@H]1OC1(C)[C@@H](O[Si](C)(C)C(C)(C)C)[C@@H](COC(C)=O)C(=O)[C@H](CO)[C@@H](O)CC(=O)CC (stereo partly drawn)

>  <log10 IC (total growth inhibition)>
1.28

$$$$
>  <COMPOUND>
C/C=C\[C@H](C)[C@H]1OC1(C)[C@@H](O[Si](C)(C)C(C)(C)C)[C@@H](COC(C)=O)C(=O)[C@H](COC(C)=O)[C@H](O)CC(=O)CC (stereo partly drawn)

>  <log10 IC (total growth inhibition)>
0.88

$$$$
>  <COMPOUND>
C/C=C\[C@H](C)[C@H]1OC1(C)[C@@H](O[Si](C)(C)C(C)(C)C)[C@@H](COC(C)=O)C(=O)[C@H](COC(C)=O)[C@@H](CC(=O)CC)OC(C)=O (stereo partly drawn)

>  <log10 IC (total growth inhibition)>
1.21

$$$$
>  <COMPOUND>
C/C=C\[C@H](C)[C@H]1O[C@@]1(C)[C@@H](O)[C@@H](CO)C(=O)[C@H](CO)[C@@H](O)CC(=O)CC

>  <log10 IC (total growth inhibition)>
-0.26

$$$$
